cell viability of combination by entry:
# Tested on: HCI01 (cells of a triple-negative basal-like breast cancer xenograft)
# assay notes: cell viability of combination (% of vehicle); higher = less cytotoxic
# experimental context: 1 µM; 72 h; partner dose: 10 nM
Give your answer as a number; write no unit.

Exercise: What value of cell viability of combination has been recorded for this entry: CC(C)c1nc(N(C)S(C)(=O)=O)nc(-c2ccc(F)cc2)c1C=CC(O)CC(O)CC(=O)[O-].CC(C)c1nc(N(C)S(C)(=O)=O)nc(-c2ccc(F)cc2)c1C=CC(O)CC(O)CC(=O)[O-].[Ca+2] (configuration not stated) [Rosuvastatin Calcium] + CN(C)C/C=C/C(=O)Nc1cc2c(Nc3ccc(F)c(Cl)c3)ncnc2cc1O[C@H]1CCOC1
Solution: 51.4

Exercise: Any idea what its cell viability of combination is? The compound is CSc1ccc2c(c1)N(CCC1CCCCN1C)c1ccccc1S2.Cl (configuration not stated) [Thioridazine HCl] + CN(C)C/C=C/C(=O)Nc1cc2c(Nc3ccc(F)c(Cl)c3)ncnc2cc1O[C@H]1CCOC1
Solution: 61.8

* * *

# Tested on: HCI01
# assay notes: cell viability (% of vehicle); higher = less cytotoxic
# experimental context: 10 µM; 72 h
Attribute: cell viability
Please reply with the number alone, leaving off any unit.

In the examples that follow, each entry is paired with its recorded cell viability.
NS(=O)(=O)c1cc2c(cc1Cl)NCNS2(=O)=O [Hydrochlorothiazide] = 95
C.CCN1CC(CCN2CCOCC2)C(c2ccccc2)(c2ccccc2)C1=O.O (configuration not stated) [Doxapram HCl] = 103
CCN1CCCC1CNC(=O)c1cc(S(=O)(=O)CC)c(N)cc1OC (configuration not stated) [Amisulpride] = 189
Cc1ccc(NC(=O)c2ccc(CN3CCN(C)CC3)cc2)cc1Nc1nc(-c2cccnc2)cs1 [Masitinib (AB1010)] = 53.6
CCCNC(C)C(=O)Nc1ccccc1C (configuration not stated) [Prilocaine] = 77.2
CN(C)CCc1c[nH]c2ccc(Cn3cncn3)cc12.O=C(O)c1ccccc1 [Rizatriptan Benzoate] = 108

Exercise: Missing value: cell viability, HCI01, entry Clc1ccc(CCC(Cn2ccnc2)Sc2c(Cl)cccc2Cl)cc1.O=[N+]([O-])O (configuration not stated) [Butoconazole nitrate] . Fill in?
Solution: 67.2

Exercise: I'm curious: which cell viability was measured for CCOC(=O)C1=CC(OC(CC)CC)C(NC(C)=O)C(N)C1.O=P(O)(O)O (configuration not stated) [Oseltamivir phosphate] tested on HCI01?
Solution: 111

Exercise: Query the reported cell viability for HCI01; item: `CCCCC(=O)N(Cc1ccc(-c2ccccc2-c2nnn[nH]2)cc1)[C@H](C(=O)O)C(C)C.CCOC(=O)[C@H](C)C[C@@H](Cc1ccc(-c2ccccc2)cc1)NC(=O)CCC(=O)O`
Solution: 98.1

Exercise: Request body: readout cell viability, system HCI01, query Cc1ncc(CO)c(CO)c1O.Cl [Pyridoxine HCl] . Return the value.
Solution: 89.2

Exercise: Provide the documented cell viability with HCI01 as the system for `CS(=O)(=O)N1CCN(Cc2cc3nc(-c4cccc5[nH]ncc45)nc(N4CCOCC4)c3s2)CC1`
Solution: 190

Exercise: What reported cell viability corresponds to CN(C)CCCN1c2ccccc2Sc2ccc(Cl)cc21.Cl [Chlorpromazine HCl] on HCI01?
Solution: 137

Exercise: Look up cell viability with HCI01 for this molecule: CC1(C)SC2C(NC(=O)C(N)c3ccccc3)C(=O)N2C1C(=O)[O-].[Na+] (configuration not stated) [Ampicillin]
Solution: 101

Where these numbers come from: the supplement of paper PMC6992640
